Record form. Attribute: IC50. Fill in for each entry.
Biological target: LRRK2 G2019S (Homo sapiens, UniProt Q5S007, G2019S)
Sequence (Q5S007 whole entry G2019S): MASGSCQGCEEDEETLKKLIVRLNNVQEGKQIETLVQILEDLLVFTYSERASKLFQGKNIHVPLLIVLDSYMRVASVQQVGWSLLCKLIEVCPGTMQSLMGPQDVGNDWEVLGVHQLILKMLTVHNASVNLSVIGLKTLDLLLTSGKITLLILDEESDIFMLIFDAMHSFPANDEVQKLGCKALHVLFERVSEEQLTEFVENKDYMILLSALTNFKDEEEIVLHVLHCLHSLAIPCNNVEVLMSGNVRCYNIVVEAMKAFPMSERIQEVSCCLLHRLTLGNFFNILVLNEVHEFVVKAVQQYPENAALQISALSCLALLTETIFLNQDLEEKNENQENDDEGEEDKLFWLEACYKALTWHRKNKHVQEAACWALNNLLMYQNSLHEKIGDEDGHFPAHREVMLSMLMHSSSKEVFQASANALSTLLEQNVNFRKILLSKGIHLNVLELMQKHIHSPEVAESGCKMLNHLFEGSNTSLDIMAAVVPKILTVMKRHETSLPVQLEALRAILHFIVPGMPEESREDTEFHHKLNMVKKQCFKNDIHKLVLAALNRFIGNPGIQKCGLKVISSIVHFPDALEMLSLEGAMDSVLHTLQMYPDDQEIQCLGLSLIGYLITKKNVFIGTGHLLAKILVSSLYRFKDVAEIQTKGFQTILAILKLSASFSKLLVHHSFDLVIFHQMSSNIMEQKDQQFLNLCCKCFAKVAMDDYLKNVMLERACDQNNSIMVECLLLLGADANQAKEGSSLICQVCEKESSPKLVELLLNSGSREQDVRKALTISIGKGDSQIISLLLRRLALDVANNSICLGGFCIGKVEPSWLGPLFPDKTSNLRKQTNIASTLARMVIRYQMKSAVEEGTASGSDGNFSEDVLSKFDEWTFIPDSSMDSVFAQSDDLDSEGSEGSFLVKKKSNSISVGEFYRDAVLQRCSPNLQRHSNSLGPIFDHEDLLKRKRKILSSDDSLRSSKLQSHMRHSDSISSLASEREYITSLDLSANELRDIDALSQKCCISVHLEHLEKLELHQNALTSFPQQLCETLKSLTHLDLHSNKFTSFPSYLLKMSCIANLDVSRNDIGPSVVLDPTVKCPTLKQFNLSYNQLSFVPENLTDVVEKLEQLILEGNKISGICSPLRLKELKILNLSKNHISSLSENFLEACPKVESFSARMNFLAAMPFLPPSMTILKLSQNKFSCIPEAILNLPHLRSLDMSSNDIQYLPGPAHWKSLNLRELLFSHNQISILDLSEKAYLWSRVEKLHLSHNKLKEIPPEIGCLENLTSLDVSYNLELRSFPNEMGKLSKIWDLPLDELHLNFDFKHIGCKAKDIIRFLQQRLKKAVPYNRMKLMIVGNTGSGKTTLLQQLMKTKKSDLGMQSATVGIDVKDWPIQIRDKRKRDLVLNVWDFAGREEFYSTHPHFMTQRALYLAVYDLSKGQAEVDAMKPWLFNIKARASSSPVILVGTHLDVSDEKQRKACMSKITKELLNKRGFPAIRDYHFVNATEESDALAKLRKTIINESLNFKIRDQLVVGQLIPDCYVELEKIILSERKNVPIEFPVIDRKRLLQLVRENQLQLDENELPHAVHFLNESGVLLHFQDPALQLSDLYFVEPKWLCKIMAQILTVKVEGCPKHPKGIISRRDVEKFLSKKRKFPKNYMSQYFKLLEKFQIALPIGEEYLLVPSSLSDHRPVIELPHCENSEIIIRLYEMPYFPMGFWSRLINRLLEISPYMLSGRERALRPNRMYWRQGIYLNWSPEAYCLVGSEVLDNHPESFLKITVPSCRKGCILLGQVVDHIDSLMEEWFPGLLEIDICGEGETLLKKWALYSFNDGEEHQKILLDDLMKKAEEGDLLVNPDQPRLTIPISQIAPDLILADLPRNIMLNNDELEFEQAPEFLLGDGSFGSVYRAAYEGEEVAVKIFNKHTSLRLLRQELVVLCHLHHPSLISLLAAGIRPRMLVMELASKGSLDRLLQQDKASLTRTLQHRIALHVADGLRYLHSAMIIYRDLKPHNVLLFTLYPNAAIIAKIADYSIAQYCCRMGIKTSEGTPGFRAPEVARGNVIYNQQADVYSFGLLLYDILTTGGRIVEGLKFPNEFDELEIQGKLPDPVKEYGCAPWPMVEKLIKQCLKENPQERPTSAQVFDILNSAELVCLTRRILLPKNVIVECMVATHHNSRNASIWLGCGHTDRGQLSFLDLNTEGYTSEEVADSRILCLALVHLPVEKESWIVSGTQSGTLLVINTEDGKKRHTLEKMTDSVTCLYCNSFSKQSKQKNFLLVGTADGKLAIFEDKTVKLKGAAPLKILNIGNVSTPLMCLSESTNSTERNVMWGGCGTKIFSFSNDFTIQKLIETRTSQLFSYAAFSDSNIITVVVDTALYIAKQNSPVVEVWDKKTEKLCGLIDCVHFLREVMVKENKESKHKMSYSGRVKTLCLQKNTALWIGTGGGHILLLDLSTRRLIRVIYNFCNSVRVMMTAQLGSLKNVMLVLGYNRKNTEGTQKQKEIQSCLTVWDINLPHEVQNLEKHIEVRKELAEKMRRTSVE
Assay: LRRK2 G2019S Km ATP LanthaScreen assay
Format: biochemical
Details: read-out: LRRK2 pIC50 (converted)
Entry format: amount then unit.

Query: // returns reported IC50 for input CCC1C(C(=O)Nc2cc3cc(C4CC45CC5)c(Cl)cc3cn2)C1c1cnn(C)c1 (centres unmarked) [Ex-2.99]
Response: 117 nM

Query: Item CC1(C)CC(C(=O)Nc2cc3cc(C4CCC(N5CCC(F)C5)CC4)c(Cl)cc3cn2)CCO1 (single isomer, unassigned) [Ex-5.12] has what recorded IC50?
Response: 2.24 nM

Query: Which IC50 value is on record for CC1(c2ccccn2)CC1C(=O)Nc1cc2cc(C3CCN(C4(C)COCC4O)CC3)c(Cl)cc2cn1 (centres unmarked) [Ex-2.90] ?
Response: 52.5 nM

Query: Using the record for O=C(Nc1cc2cc(C3CCN(C4COC4)CC3)c(Cl)cc2cn1)C1CC12CCOCC2 (racemic) [Ex-1.9] , report its IC50.
Response: 2.88 nM

Query: Looking for the measured IC50 of CC1(C)CCC(C(=O)Nc2cc3cc(C4CCC(N5CCC(F)C5)CC4)c(Cl)cc3cn2)CO1 (single isomer, unassigned) [Ex-5.17] , can you help?
Response: 5.62 nM

Query: Reported IC50, molecule CC1(N2CCC(c3cc4cc(NC(=O)C5CC56CCOCC6)ncc4cc3Cl)CC2)COCC1F (single isomer, unassigned) [Ex-6.25] : ____
Response: 1.66 nM

Query: Quick one: IC50 for COC1CN(C2CCC(c3cc4cc(NC(=O)C5CC56CCOCC6)ncc4cc3Cl)CC2)C1 (single isomer, unassigned) [Ex-11.4] ?
Response: 1.7 nM

Query: Name the recorded IC50 for CC1(C)CC(C(=O)Nc2cc3cc(C4CCN(C5(C)CCOC5)CC4)c(Cl)cc3cn2)CCO1 (single isomer, unassigned) [Ex-6.45] .
Response: 2.14 nM

----------
Target: LRRK2 G2019S (Homo sapiens, UniProt Q5S007, G2019S)
Experiment: LRRK2 G2019S Km ATP LanthaScreen assay
Assay type: biochemical
Details: read-out: LRRK2 pIC50 (converted)
test.readout: IC50 (nM)
Just the number please, in nM, no unit attached.

Query: // lookup IC50 | system=LRRK2 G2019S (Homo sapiens, UniProt Q5S007, G2019S) | key= CC1(N2CCC(c3cc4cc(NC(=O)[C@@H]5CCCCO5)ncc4cc3Cl)CC2)COCC1O (single isomer, unassigned) [Ex-1.17]
Response: 0.178

Query: Request - read-out IC50 | tested on LRRK2 G2019S (Homo sapiens, UniProt Q5S007, G2019S) | compound CC1(C)CCC(C(=O)Nc2cc3cc(C4CCC(N5CCC(F)C5)CC4)c(Cl)cc3cn2)CO1 (single isomer, unassigned) [Ex-5.23]
Response: 3020

Query: Fill in the recorded IC50 for this compound, with LRRK2 G2019S (Homo sapiens, UniProt Q5S007, G2019S) as test system: CC1(N2CCC(c3cc4cc(NC(=O)C5CC5c5ccccn5)ncc4cc3Cl)CC2)CCOC1 (single isomer, unassigned) [Ex-6.35]
Response: 6.61

Query: # value lookup — system LRRK2 G2019S (Homo sapiens, UniProt Q5S007, G2019S), readout IC50, item O=C(Nc1cc2cc(C3CCN(C4COCC4O)CC3)c(Cl)cc2cn1)C1CC12CCOC2 (single isomer, unassigned) [Ex-8.5]
Response: 0.1

Query: # query: IC50 | item CC1(N2CCC(c3cc4cc(NC(=O)C5CCC(C(F)(F)F)OC5)ncc4cc3Cl)CC2)COCC1O (centres unmarked) [Ex-2.60] | system: LRRK2 G2019S (Homo sapiens, UniProt Q5S007, G2019S)
Response: 47.9

Query: Param readout= IC50; system= LRRK2 G2019S (Homo sapiens, UniProt Q5S007, G2019S); entry= Cc1cc2cnc(NC(=O)C3CC34CCOC4)cc2cc1C1CCN(C2(C)COCC2F)CC1 (single isomer, unassigned) [Ex-15.14] ; returns value.
Response: 3.72

Query: What IC50 appears in the records for this compound with LRRK2 G2019S (Homo sapiens, UniProt Q5S007, G2019S)? CC1(N2CCC(c3cc4cc(NC(=O)C5CC56CCOCC6)ncc4cc3Cl)C(F)C2)COCC1O (single isomer, unassigned) [Ex-14.6]
Response: 2.57

Query: Quick check: IC50 on LRRK2 G2019S (Homo sapiens, UniProt Q5S007, G2019S), item CCOC1CC2(C1)CC2C(=O)Nc1cc2cc(C3CCN(C4(C)COCC4O)CC3)c(Cl)cc2cn1 (single isomer, unassigned) [Ex-4.30] ?
Response: 3.02

----------
Molecular target: LRRK2 G2019S (Homo sapiens, UniProt Q5S007, G2019S)
Test: LRRK2 G2019S Km ATP LanthaScreen assay
Type: biochemical
Conditions: read-out: LRRK2 pIC50 (converted)
test.readout: IC50 (nM)
Expressed in nM, but write only the number.

Query: Dear colleague, I am looking for the recorded IC50 of the following compound: COCC(C)c1cc2cc(NC(=O)C3CC3c3ccccn3)ncc2cc1Cl (single isomer, unassigned) [Ex-9.19]
Response: 11

Query: Data request, read-out IC50, for CC1(N2CCC(c3cc4cc(NC(=O)C5CC56CC6)ncc4cc3Cl)CC2)COCC1F (stereo not drawn)
Response: 0.0813

Query: Any idea what its IC50 is? The compound is CC1(N2CCC(c3cc4cc(NC(=O)C5COC6(CCC6)C5)ncc4cc3Cl)CC2)COCC1O (single isomer, unassigned) [Ex-4.17]
Response: 0.102

Query: Record request: IC50 value, item CC1(N2CCC(c3cc4cc(NC(=O)c5cnn(C6CC6)c5Cl)ncc4cc3Cl)CC2)COCC1F (single isomer, unassigned)
Response: 0.112

Query: Returns the measured IC50 for the input compound. Input: O=C(Nc1cc2cc(C3CCC(N4CC(F)(F)C4)CC3)c(Cl)cc2cn1)C1CC1c1ccccn1 (single isomer, unassigned) [Ex-5.3]
Response: 110

Query: IC50; subject: CC1C(C(=O)Nc2cc3cc(C4CCN(C5COC5)CC4)c(Cl)cc3cn2)C1(F)F (racemic)
Response: 1.86

Query: Item under review: Cn1cc(C(=O)Nc2cc3cc(C4(C#N)CC45CC5)ccc3cn2)cn1 (single isomer, unassigned) [Ex-18.16] . Reported IC50?
Response: 3.09

Query: Look up IC50 for this compound: CC1(N2CCC(c3cc4cc(NC(=O)C5CCC(C(F)(F)F)OC5)ncc4cc3Cl)CC2)COCC1O (stereo not drawn) [Ex-2.61]
Response: 43.7

Query: Need IC50, item CC1(N2CCC(c3cc4cc(NC(=O)C5CC56CCC6)ncc4cc3Cl)CC2)COCC1O (single isomer, unassigned)
Response: 0.0813

----------
Biological target: LRRK2 G2019S (Homo sapiens, UniProt Q5S007, G2019S)
Assay: LRRK2 G2019S Km ATP LanthaScreen assay
Assay type: biochemical
Details: read-out: LRRK2 pIC50 (converted)
test.readout: IC50 (nM)
Supply the numeric figure in nM, leaving out any unit text.

Query: IC50 lookup needed for CC1(C)CC(C(=O)Nc2cc3cc(C4CCN(C5(C)COCC5F)CC4)c(Cl)cc3cn2)CCO1 (single isomer, unassigned) [Ex-6.36] , thanks.
Response: 0.0813

Query: Quick one: IC50 of CC1(C)CC1(C#N)c1ccc2cnc(NC(=O)C3CC3)cc2c1 (single isomer, unassigned) [Ex-18.4] ?
Response: 61.7

Query: Reported IC50, compound CC1(N2CCC(c3cc4cc(NC(=O)Cc5cccnc5)ncc4cc3Cl)CC2)COCC1O (centres unmarked) : ____
Response: 0.0813

Query: Name the reported IC50 value associated with the compound Cc1cc2cnc(NC(=O)C3CC3C(F)F)cc2cc1C1CCN(C2(C)COCC2O)CC1 (centres unmarked) [Ex-2.53]
Response: 0.813

Query: GET /values?readout=IC50&item= CC1(N2CCC(c3cc4cc(NC(=O)C56CC(C5)C6)ncc4cc3Cl)CC2)COC1
Response: 9.12

Query: Look at this compound and give its reported IC50. N#CC1(c2ccc3cnc(NC(=O)C4CC4c4ccncc4)cc3c2)CC12CC2 (centres unmarked) [Ex-2.42]
Response: 2.34

Query: What does the record list as IC50 for CC1(N2CCC(c3cc4cc(NC(=O)C5CC5C5CCCO5)ncc4cc3Cl)CC2)COCC1O (single isomer, unassigned) ?
Response: 0.0813

Query: Entry CCC1C(C(=O)Nc2cc3cc(C4CC45CC5)c(Cl)cc3cn2)C1c1cnn(C)c1 (centres unmarked) [Ex-2.98] has what IC50?
Response: 15.5

Query: I would be grateful if you could share the reported IC50 for CC1(C)CCC(C(=O)Nc2cc3cc(C4CCN(C5(C)COCC5O)CC4)c(Cl)cc3cn2)CO1 (single isomer, unassigned) [Ex-4.25] .
Response: 0.776

Query: Given the entry O=C(Nc1cc2cc(C3CCN(C4COC4)CC3)c(Cl)cc2cn1)C1CC12CCC2 (racemic) , report its measured IC50.
Response: 1.35

Query: Give the measured IC50 of Cn1ccc(C2CC2C(=O)Nc2cc3cc(C4(C#N)CC45CC5)ccc3cn2)n1 (centres unmarked) [Ex-2.72] .
Response: 3.31

Query: Record request: IC50 value, item Cc1cc2cnc(NC(=O)C3CC4(CC4)C3)cc2cc1C1CCN(C2(C)COCC2O)CC1 (single isomer, unassigned)
Response: 0.302

Query: Query (compound): CC(C)(O)C1CC1C(=O)Nc1cc2cc(C3CCN(C4(C)COCC4F)CC3)c(Cl)cc2cn1 (single isomer, unassigned) [Ex-6.26] ; field requested: IC50
Response: 0.234

Query: # query: IC50 of entry O=C(Nc1cc2cc(C3CCN(C4COC4)CC3)c(Cl)cc2cn1)C1CCCC1
Response: 5.5
